Biological target: Poly-beta-1,6-N-acetyl-D-glucosamine N-deacetylase (Escherichia coli (strain K12), UniProt P75906)
Sequence (P75906 whole entry): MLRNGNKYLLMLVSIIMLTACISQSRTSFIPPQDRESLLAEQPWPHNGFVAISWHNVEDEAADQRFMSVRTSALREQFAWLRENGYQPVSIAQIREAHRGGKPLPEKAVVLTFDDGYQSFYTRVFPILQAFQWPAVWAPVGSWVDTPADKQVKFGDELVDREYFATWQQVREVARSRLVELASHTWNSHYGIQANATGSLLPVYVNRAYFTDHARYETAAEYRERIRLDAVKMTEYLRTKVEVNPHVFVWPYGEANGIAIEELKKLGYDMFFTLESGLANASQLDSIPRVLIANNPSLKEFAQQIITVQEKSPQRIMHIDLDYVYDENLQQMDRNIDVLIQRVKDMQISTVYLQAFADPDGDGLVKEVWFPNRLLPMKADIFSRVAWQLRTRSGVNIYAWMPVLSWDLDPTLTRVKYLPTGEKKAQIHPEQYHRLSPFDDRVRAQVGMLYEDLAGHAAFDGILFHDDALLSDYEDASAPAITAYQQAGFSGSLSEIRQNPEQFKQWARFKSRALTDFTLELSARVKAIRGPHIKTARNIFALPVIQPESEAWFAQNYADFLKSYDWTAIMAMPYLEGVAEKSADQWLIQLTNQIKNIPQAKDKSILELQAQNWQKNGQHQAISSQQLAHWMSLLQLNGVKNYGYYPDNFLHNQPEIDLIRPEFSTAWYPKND
Assay: Inhibition of Escherichia coli PgaB expressed in Escherichia coli BL21 (DE3) cells transformed with pET28 plasmid coding for PgaB42-655 using compound pre-incubated with 1Eq DTT and using acetoxymethyl-4-methylumbelliferone as substrate measured at 2 min intervals over 10 mins in presence of CoCl2 by fluorescence assay
pIC50: −log10 of the molar value.
OBSERVATION TYPE: pIC50

Below, 2 molecules whose answers are already recorded.
INPUT SMILES: CC(=O)N[C@H]1[C@H](OCc2ccccc2)O[C@H](CO)[C@@H](O)[C@@H]1S
RESULT: < 2.10
//
INPUT SMILES: CC(=S)N[C@H]1[C@H](OCc2ccccc2)O[C@H](CO)[C@@H](O)[C@@H]1S
RESULT: < 3.00

Now consider the entry below.
Query: Return reported pIC50; argument: CS(=O)(=O)N[C@H]1[C@H](OCc2ccccc2)O[C@H](CO)[C@@H](O)[C@@H]1S
Reply: < 3.00

---

Molecular target: Peptidoglycan-N-acetylglucosamine deacetylase (Streptococcus pneumoniae (strain ATCC BAA-255 / R6), UniProt Q8DP63)
Sequence (Q8DP63 whole entry): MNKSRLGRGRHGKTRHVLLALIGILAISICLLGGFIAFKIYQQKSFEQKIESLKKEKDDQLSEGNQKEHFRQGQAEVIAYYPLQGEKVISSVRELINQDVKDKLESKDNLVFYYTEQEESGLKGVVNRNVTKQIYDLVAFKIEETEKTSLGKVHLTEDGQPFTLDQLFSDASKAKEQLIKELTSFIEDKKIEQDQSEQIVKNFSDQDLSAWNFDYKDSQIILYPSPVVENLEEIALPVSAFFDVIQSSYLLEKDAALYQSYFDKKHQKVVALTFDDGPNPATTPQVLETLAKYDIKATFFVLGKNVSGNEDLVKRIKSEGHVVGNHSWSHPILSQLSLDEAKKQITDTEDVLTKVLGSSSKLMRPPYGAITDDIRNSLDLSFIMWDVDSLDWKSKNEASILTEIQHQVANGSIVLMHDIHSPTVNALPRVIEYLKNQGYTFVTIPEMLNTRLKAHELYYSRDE
Assay: Inhibition of Streptococcus pneumoniae Pgda expressed in Escherichia coli BL21 (DE3) cells transformed with pET28bSpPgdA232-431 plasmid using compound pre-incubated with 1Eq DTT and using acetoxymethyl-4-methylumbelliferone as substrate measured at 5 min intervals over 60 mins in presence of CoCl2 by fluorescence assay
Collected IC50 values appear next to each entry.

Below, 2 compounds whose answers are already recorded.
INPUT SMILES: CC(=O)N[C@H]1[C@H](OCc2ccccc2)O[C@H](CO)[C@@H](O)[C@@H]1S
IC50: > 8 mM
//
INPUT SMILES: CC(=S)N[C@H]1[C@H](OCc2ccccc2)O[C@H](CO)[C@@H](O)[C@@H]1S
IC50: > 1 mM

Now consider the entry below.
Query: Return reported IC50; argument: CS(=O)(=O)N[C@H]1[C@H](OCc2ccccc2)O[C@H](CO)[C@@H](O)[C@@H]1S
Reply: > 1 mM
